The values you see were collected from patent US20160264650A1.

TESTED_ON: Clostridium difficile toxin B, soluble full-length (TechLab) (Clostridium difficile, UniProt P18177 2-2366)
Sequence (P18177 2-2366 limits assumed): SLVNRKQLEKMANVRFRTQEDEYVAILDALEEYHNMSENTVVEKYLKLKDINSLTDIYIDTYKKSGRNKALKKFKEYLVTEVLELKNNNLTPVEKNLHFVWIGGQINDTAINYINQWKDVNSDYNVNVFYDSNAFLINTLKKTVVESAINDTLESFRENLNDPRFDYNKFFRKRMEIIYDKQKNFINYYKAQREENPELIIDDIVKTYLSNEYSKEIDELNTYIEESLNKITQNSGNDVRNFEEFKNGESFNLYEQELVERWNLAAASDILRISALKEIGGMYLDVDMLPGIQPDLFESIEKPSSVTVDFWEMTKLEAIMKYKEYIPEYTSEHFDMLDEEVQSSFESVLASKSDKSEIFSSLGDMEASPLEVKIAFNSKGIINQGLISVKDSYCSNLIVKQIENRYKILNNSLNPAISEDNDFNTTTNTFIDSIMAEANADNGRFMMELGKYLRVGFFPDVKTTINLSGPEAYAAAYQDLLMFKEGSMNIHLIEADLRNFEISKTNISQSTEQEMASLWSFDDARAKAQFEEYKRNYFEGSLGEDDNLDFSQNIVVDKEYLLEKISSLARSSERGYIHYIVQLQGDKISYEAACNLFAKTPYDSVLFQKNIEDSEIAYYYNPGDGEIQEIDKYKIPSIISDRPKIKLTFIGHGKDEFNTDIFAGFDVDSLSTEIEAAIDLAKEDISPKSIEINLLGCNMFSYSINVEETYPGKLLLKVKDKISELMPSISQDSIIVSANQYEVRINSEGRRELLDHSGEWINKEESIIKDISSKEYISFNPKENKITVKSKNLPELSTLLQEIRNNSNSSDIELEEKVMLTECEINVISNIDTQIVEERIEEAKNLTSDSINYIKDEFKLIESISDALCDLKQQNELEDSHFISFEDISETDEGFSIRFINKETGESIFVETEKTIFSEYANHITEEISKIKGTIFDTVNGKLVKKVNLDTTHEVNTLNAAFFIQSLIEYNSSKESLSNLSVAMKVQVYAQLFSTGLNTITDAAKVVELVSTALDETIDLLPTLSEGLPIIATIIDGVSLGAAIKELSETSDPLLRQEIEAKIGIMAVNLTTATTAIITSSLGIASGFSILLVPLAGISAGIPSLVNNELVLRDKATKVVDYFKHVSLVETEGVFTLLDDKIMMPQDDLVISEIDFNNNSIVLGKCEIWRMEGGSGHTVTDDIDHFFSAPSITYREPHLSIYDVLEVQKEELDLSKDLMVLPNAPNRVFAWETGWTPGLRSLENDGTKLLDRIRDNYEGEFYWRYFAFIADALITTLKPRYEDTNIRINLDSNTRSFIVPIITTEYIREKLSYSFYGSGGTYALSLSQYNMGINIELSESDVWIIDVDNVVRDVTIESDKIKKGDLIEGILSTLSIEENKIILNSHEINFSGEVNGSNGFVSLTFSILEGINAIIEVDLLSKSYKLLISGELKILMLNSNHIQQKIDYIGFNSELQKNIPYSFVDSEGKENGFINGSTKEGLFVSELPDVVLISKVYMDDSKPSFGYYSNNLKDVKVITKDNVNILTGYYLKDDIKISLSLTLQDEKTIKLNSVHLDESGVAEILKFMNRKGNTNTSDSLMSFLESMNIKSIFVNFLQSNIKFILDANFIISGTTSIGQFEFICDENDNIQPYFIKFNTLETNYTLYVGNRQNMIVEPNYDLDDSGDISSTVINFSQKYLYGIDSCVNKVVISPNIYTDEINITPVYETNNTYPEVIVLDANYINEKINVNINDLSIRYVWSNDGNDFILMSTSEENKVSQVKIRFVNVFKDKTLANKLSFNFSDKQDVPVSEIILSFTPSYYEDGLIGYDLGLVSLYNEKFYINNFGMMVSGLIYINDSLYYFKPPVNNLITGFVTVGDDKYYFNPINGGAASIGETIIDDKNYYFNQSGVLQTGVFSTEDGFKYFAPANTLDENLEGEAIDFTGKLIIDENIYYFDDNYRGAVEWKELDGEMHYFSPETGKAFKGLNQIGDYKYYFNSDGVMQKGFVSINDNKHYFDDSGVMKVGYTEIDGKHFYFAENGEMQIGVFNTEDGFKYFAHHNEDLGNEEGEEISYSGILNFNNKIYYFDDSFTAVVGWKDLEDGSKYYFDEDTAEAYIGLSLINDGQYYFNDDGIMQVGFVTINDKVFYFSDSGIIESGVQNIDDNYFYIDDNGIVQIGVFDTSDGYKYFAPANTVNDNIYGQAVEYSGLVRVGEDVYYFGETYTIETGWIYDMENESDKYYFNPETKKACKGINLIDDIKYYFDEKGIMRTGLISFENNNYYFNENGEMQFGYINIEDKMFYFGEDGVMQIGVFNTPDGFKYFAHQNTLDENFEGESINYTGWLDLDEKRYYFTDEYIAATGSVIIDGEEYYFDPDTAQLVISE
MEASUREMENT_DESCRIPTION: cell-based or functional assay
Listed next: entries and their corresponding IC50, Vero cell viability (neutralization), Trial 2, 0.1 pM Toxin B.
Write it as a number; the unit pM goes unstated.

H1H3335P (antibody, V domains shown) VH: EVQLVESGGGLVRPGGSLRLSCAASGFTFRIYAMSWVRQAPGKGLEWVSGISGSGDNTYYTDSVKGRFIISRDNSKSTLYLQMNSLRAEDTAVYYCARGWELLNYWGQGTLVTVSS VL: DIQMTQSPSSLSAFVGDRVTITCRASQDISNHLAWFQQKPGKVPKSLIYAASSLQSGVPSKFSGSGSGTDFTLTISSLQPEDFATYYCQQYGLYPPTFGPGTKVDIKR: 380

Could you share which IC50, Vero cell viability (neutralization), Trial 2, 0.1 pM Toxin B value was measured for H1H3343P (antibody, V domains shown) VH: EVQLVESGGGLVQPGGSLRLSCVASGFNFRIYAMSWVRQAPGKGPEWVSGISGSGDNTYYAASVKGRFTVSRDNSKNTLYLQMTSLRAEDTAVFYCARGWELLNYWGQGTLVTVSS VL: DIQMTQSPSSLSASVGDRVTITCRASLDIGNFLAWFQQKPGTAPKSLIYSASSLQTGVPSKFSGSGSGTDFTLTISSLQPEDFATYYCQQYNSYPPTFGPGTKVDIKR ?
200
